- method: Solubility study of Compound (II) in lipid excipients and surfactants
- Format: physicochemical
- test.context: oil or lipid, thermodynamic from solid; excipient Labrafil M 2130 CS; read-out: Limit of solubility in Labrafil M 2130 CS
measured.endpoint: solubility

stdin: For the compound shown here, C[C@H](CCOc1cccc(CC(=O)O)c1)N(Cc1cccc(C(F)(F)F)c1Cl)CC(c1ccccc1)c1ccccc1 [Compound (II)] , give the reported solubility.
stdout: > 200 mg/mL

---

- method: Solubility study of Compound (II) in lipid excipients and surfactants
- Type: physicochemical
- test.context: oil or lipid, thermodynamic from solid; excipient Labrasol; read-out: Limit of solubility in Labrasol
measured.endpoint: solubility

stdin: Request the reported solubility associated with C[C@H](CCOc1cccc(CC(=O)O)c1)N(Cc1cccc(C(F)(F)F)c1Cl)CC(c1ccccc1)c1ccccc1
stdout: > 200 mg/mL

Every entry's value here was drawn from patent US11629118B2.
